- system: human CB1 receptor (Homo sapiens, UniProt P21554)
- Construct: expressed in transfected cells; host or cells: HEK293
- Sequence (P21554 whole entry): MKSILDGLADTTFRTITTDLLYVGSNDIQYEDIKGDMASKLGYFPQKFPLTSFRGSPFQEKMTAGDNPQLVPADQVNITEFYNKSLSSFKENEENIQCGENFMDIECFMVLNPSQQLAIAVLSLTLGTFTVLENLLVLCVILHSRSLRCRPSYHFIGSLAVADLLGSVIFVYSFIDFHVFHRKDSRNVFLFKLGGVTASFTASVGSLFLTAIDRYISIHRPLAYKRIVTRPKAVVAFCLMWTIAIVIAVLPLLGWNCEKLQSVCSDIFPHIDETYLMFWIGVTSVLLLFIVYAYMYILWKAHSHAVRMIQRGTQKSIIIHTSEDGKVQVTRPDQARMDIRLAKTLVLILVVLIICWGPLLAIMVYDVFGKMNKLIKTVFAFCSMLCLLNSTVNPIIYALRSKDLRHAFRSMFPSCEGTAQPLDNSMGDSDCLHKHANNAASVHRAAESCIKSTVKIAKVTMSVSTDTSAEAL
- protocolSummary: bioSensAll β-arrestin plasma membrane (PM) translocation BRET biosensor (+GRK2) assay in transfected HEK293 cells, inhibition of CP-55,940 response
- Assay type: cell-based
- assayConditions: HEK293 cells transfected with hCB1 and β-arrestin PM translocation biosensor (+GRK2), test compound then EC75 of CP-55,940 (100 nM), overnight incubation, read-out: CB1 wt βarr2 EC50
measuredAttribute: pEC50
Scale: negative log10 of molar concentration, which is what pEC50 denotes.

Sample answers from the record:
• CC(=O)N/C(N)=N/C(=N/S(=O)(=O)N1CCC(C(F)(F)F)CC1)N1CCC(c2ccccc2)C(c2ccc(Cl)cc2)=N1 (single isomer, unassigned) [Compound 3 Isomer 1] = 4.85
• CC(=O)N/C(N)=N/C(=N/S(=O)(=O)N1CCCCC1)N1CCC(c2ccccc2)C(c2ccc(Cl)cc2)=N1 (single isomer, unassigned) [Compound 2 Isomer 1] = 4.63
• CC(=O)N/C(N)=N\C(=N\S(=O)(=O)c1ccc(C(F)(F)F)cc1)N1CCC(c2ccccc2)C(c2ccc(Cl)cc2)=N1 (single isomer, unassigned) [Compound 7 Isomer 1] = 6.24
• CC(=O)N/C(N)=N/C(=N/S(=O)(=O)N1CCCC(F)(F)C1)N1CCC(c2ccccc2)C(c2ccc(Cl)cc2)=N1 (single isomer, unassigned) [Compound 5 Isomer 1] = 6.40
• CC(=O)N/C(N)=N/C(=N/S(=O)(=O)N1CCCC(F)(F)C1)N1CCC(c2ccccc2)C(c2ccc(Cl)cc2)=N1 (single isomer, unassigned) [Compound 5 Isomer 2] = 9.14
• CC(=O)N/C(N)=N/C(=N/S(=O)(=O)N1CCC(C(F)(F)F)CC1)N1CCC(c2ccccc2)C(c2ccc(Cl)cc2)=N1 (single isomer, unassigned) [Compound 3 Isomer 2] = 8.89

INPUT: Lab request: please report pEC50 under test system human CB1 receptor (Homo sapiens, UniProt P21554) for CC(=O)NC(N)=NC(=NS(=O)(=O)c1cc(F)cc(F)c1)N1CCC(c2ccccc2)C(c2ccc(Cl)cc2)=N1 (single isomer, unassigned) [Compound 6 Isomer 1]
OUTPUT: 6.42

INPUT: Lab request: please report pEC50 under test system human CB1 receptor (Homo sapiens, UniProt P21554) for CC(=O)NC(N)=NC(=NS(=O)(=O)c1cc(F)cc(F)c1)N1CCC(c2ccccc2)C(c2ccc(Cl)cc2)=N1 (single isomer, unassigned) [Compound 6 Isomer 2]
OUTPUT: 8.59

INPUT: Lab request: please report pEC50 under test system human CB1 receptor (Homo sapiens, UniProt P21554) for CC(=O)N/C(N)=N/C(=N/S(=O)(=O)N1CCC(F)(F)CC1)N1CCC(c2ccccc2)C(c2ccc(Cl)cc2)=N1 (single isomer, unassigned) [Compound 4 Isomer 2]
OUTPUT: 8.85
